# assayComment: Serum stability in rat serum at 37° C.
# Assay type: in vitro ADME
# runConditions: mono-exponential fit
endpoint: Serum τ1/2 (h) rat
Numeric only. Scale: h

Sample F116L/C124A: RLuc mutant F116L/C124A (protein) MASKVYDPEQRKRMITGPQWWARCKQMNVLDSFINYYDSEKHAENAVIFLHGNAASSYLWRHVVPHIEPVARCIIPDLIGMGKSGKSGNGSYRLLDHYKYLTAWFELLNLPKKIILVGHDWGAALAFHYSYEHQDKIKAIVHAESVVDVIESWDEWPDIEEDIALIKSEEGEKMVLENNFFVETMLPSKIMRKLEPEEFAAYLEPFKEKGEVRRPTLSWPREIPLVKGGKPDVVQIVRNYNAYLRASDDLPKMFIESDPGFFSNAIVEGAKKFPNTEFVKVKGLHFSQEDAPDEMGKYIKSFVERVLKNEQ ; Serum τ1/2 (h) rat observed: 9.4
